assay overview: Protein binding in monkey plasma at 5 uM incubated for 4 hrs by LC-MS/MS analysis
Format: ADME, cell-free, Macaca mulatta
condition parameters: rhesus monkey, read-out: PPB (converted)
quantity kind: fraction unbound at 4 h, 5 µM

[[record]]
compound_string = "C[C@]1(CO)Cc2cc(NC(=O)c3cnn4cccnc34)c(N3CCOCC3)cc2O1"
endpoint_value = 0.49


---

The reader will find reported Papp A→B at 3 h, 10 µM values listed item by item below.
assay overview: Apparent permeability from apical to basolateral side in MDCK cells at 10 uM incubated for 180 mins and measured up to 180 min by LC-MS/MS analysis
Assay type: ADME, cell-based, Canis lupus familiaris
condition parameters: dog
quantity kind: Papp A→B at 3 h, 10 µM (×10⁻⁶ cm/s)

[[record]]
compound_string = "CC1(C)Cc2cc(NC(=O)c3cnn4cc(C(N)=O)cnc34)c(N3CCOCC3)cc2O1"
unit_of_measure = "×10⁻⁶ cm/s"
endpoint_value = 0.7

[[record]]
compound_string = "CC1(C)Cc2cc(NC(=O)c3cnn4cccnc34)c(N3CCOCC3)cc2O1"
unit_of_measure = "×10⁻⁶ cm/s"
endpoint_value = 14

[[record]]
compound_string = "CC1(C)Cc2cc(NC(=O)c3cnn4cccnc34)c(N3CCN(CCO)CC3)cc2O1"
unit_of_measure = "×10⁻⁶ cm/s"
endpoint_value = 8.2

[[record]]
compound_string = "CC1(C)Cc2cc(NC(=O)c3cnn4cc(CO)cnc34)c(N3CCOCC3)cc2O1"
unit_of_measure = "×10⁻⁶ cm/s"
endpoint_value = 18

[[record]]
compound_string = "CC1(C)Cc2cc(NC(=O)c3cnn4cccnc34)c(N3CCC(CO)CC3)cc2O1"
unit_of_measure = "×10⁻⁶ cm/s"
endpoint_value = 16

[[record]]
compound_string = "O=C(Nc1cc2sc(N3CCOCC3)nc2cc1N1CCC(CO)CC1)c1cnn2cccnc12"
unit_of_measure = "×10⁻⁶ cm/s"
endpoint_value = 8.4

[[record]]
compound_string = "CC1(C)Cc2cc(NC(=O)c3cnn4cccnc34)c(N3CCN(CC(N)=O)CC3)cc2O1"
unit_of_measure = "×10⁻⁶ cm/s"
endpoint_value = 2.6

[[record]]
compound_string = "CC1(C)Cc2cc(NC(=O)c3cnn4cc(C#N)cnc34)c(N3CCOCC3)cc2O1"
unit_of_measure = "×10⁻⁶ cm/s"
endpoint_value = 2.7


---

assay overview: Oral bioavailability in rat at 1 mg/kg
Format: ADME, organism-based
condition parameters: in vivo
quantity kind: bioavailability (%)

[[record]]
compound_string = "C[C@]1(CO)Cc2cc(NC(=O)c3cnn4cccnc34)c(N3CCOCC3)cc2O1"
unit_of_measure = "%"
endpoint_value = 42


---

assay overview: Protein binding in human plasma at 5 uM incubated for 4 hrs by LC-MS/MS analysis
Type: ADME, cell-free
condition parameters: read-out: PPB (converted)
The reader will find reported fraction unbound at 4 h, 5 µM values listed item by item below.
quantity kind: fraction unbound at 4 h, 5 µM

[[record]]
compound_string = "Cn1c(N2CCOCC2)nc2cc(N3CCC(CO)CC3)c(NC(=O)c3cnn4cccnc34)cc21"
endpoint_value = 0.12

[[record]]
compound_string = "O=C(Nc1cc2sc(N3CCOCC3)nc2cc1N1CCOCC1)c1cnn2cccnc12"
endpoint_value = 0.05

[[record]]
compound_string = "O=C(Nc1cc2sc(N3CCOCC3)nc2cc1N1CCC(CO)CC1)c1cnn2cccnc12"
endpoint_value = 0.02

[[record]]
compound_string = "C[C@]1(CO)Cc2cc(NC(=O)c3cnn4cccnc34)c(N3CCOCC3)cc2O1"
endpoint_value = 0.44


Values compiled from ChEMBL document CHEMBL4359811.
